// data source = paper PMC7156458

# Th-T fluorescence, mean of three wells per record follows
Molecular target: Aβ42 (Homo sapiens, UniProt P05067)
Sequence (P05067 672-713): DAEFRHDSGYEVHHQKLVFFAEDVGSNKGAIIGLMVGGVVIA
Experiment: Th-T (thioflavin-T) assay of Aβ42 aggregation
Assay type: biochemical
Conditions: time-course reading M103; Supplementary Fig. 47 source data
# print the numeric value only

>>> df
                                   molecule  measured_value
0  C=C1CCC2C(C)(CCC=C(C)C)C(O)CCC2(C)C1Cc1c(OC)oc(C)c(C(=O)OC)c1=O (stereo not shown)           1.613

Would you mind telling me what Th-T fluorescence, mean of three wells value was observed for C=C1CCC2C(C)(CCC=C(C)C)C(O)CCC2(C)C1Cc1c(OC)oc(C)c(C)c1=O (stereo not shown) [Compound 15, viridoxin A hydrolysate] ?
3.312

Would you mind telling me what Th-T fluorescence, mean of three wells value was observed for C=C1CCC2C(C)(CCC=C(C)C)C(O)CCC2(C)C1Cc1c(OC)oc(CO)c(C)c1=O (stereo not shown) ?
2.066

Would you mind telling me what Th-T fluorescence, mean of three wells value was observed for C=C1CCC2C(C)(CC(=O)C=C(C)C)C(O)CCC2(C)C1Cc1c(O)c(C)c(C)oc1=O (stereo not shown) ?
3.486

Would you mind telling me what Th-T fluorescence, mean of three wells value was observed for C=C1CC[C@H]2[C@]3(C)C[C@H](C=C(C)C)O[C@H]3CC[C@]2(C)[C@@H]1Cc1c(OC)oc(CO)c(C)c1=O ?
3.898

Would you mind telling me what Th-T fluorescence, mean of three wells value was observed for C=C1CCC2C(C)(CC(=O)C=C(C)C)C(O)CCC2(C)C1Cc1c(OC)oc(C)c(C)c1=O (stereo not shown) ?
3.611

Would you mind telling me what Th-T fluorescence, mean of three wells value was observed for C=C1CC[C@@H]2[C@](C)(CC[C@H]3O[C@H](C=C(C)C)C[C@@]23C)[C@@H]1Cc1c(OC)oc(CO)c(C(=O)OC)c1=O ?
1.038
